- Tgt: Proto-oncogene tyrosine-protein kinase Src (Homo sapiens) (UniProt P12931)
- Sequence (P12931 2-536 limits assumed): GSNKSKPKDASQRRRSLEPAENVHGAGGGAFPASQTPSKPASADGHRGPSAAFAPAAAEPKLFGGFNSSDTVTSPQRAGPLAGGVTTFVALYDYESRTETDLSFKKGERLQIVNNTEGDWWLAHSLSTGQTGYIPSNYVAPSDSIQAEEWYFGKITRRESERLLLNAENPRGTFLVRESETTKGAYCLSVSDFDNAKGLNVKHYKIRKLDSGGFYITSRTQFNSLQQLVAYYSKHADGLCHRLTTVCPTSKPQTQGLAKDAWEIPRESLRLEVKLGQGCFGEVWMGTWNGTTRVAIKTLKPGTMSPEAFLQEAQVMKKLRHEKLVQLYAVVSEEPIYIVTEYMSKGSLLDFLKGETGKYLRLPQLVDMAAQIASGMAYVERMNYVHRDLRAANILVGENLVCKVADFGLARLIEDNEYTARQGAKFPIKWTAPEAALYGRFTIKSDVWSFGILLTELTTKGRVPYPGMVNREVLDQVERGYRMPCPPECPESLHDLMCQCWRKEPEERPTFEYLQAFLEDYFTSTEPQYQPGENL
- Protocol: Inhibition of recombinant human full length His-tagged SRC expressed in baculovirus expression system at 1 uM relative to control
Measured attribute: inhibition (%)

Use these answered entries as a reference point.
| Mol | Scale unit | inhibition |
| --- | --- | --- |
| COc1ccc(S(N)(=O)=O)cc1C(=O)Nc1cccc(-c2nncn2C(C)C)n1 | % | 4 |
| COc1cc(C)c(C(N)=O)cc1C(=O)Nc1cccc(-c2nncn2C(C)C)n1 | % | 8 |
| COc1ccc(S(C)(=O)=O)cc1C(=O)Nc1cccc(-c2nncn2C(C)C)n1 | % | 3 |

(I) COc1ccc(C(N)=O)cc1C(=O)Nc1cccc(-c2nncn2C(C)C)n1
(II) COc1cc(C)c(S(C)(=O)=O)cc1C(=O)Nc1cccc(-c2nncn2C(C)C)n1
(III) COc1cc(C)c(S(N)(=O)=O)cc1C(=O)Nc1cccc(-c2nncn2C(C)C)n1
Put the entries in order of inhibition, starting with the largest number. # answer = labels listed in requested order
I, III, II
(I: 7%, III: 1%, II: -1%)

---

- Tgt: Epidermal growth factor receptor (Homo sapiens) (UniProt P00533)
- Sequence (P00533 whole entry, the tested form may be a part): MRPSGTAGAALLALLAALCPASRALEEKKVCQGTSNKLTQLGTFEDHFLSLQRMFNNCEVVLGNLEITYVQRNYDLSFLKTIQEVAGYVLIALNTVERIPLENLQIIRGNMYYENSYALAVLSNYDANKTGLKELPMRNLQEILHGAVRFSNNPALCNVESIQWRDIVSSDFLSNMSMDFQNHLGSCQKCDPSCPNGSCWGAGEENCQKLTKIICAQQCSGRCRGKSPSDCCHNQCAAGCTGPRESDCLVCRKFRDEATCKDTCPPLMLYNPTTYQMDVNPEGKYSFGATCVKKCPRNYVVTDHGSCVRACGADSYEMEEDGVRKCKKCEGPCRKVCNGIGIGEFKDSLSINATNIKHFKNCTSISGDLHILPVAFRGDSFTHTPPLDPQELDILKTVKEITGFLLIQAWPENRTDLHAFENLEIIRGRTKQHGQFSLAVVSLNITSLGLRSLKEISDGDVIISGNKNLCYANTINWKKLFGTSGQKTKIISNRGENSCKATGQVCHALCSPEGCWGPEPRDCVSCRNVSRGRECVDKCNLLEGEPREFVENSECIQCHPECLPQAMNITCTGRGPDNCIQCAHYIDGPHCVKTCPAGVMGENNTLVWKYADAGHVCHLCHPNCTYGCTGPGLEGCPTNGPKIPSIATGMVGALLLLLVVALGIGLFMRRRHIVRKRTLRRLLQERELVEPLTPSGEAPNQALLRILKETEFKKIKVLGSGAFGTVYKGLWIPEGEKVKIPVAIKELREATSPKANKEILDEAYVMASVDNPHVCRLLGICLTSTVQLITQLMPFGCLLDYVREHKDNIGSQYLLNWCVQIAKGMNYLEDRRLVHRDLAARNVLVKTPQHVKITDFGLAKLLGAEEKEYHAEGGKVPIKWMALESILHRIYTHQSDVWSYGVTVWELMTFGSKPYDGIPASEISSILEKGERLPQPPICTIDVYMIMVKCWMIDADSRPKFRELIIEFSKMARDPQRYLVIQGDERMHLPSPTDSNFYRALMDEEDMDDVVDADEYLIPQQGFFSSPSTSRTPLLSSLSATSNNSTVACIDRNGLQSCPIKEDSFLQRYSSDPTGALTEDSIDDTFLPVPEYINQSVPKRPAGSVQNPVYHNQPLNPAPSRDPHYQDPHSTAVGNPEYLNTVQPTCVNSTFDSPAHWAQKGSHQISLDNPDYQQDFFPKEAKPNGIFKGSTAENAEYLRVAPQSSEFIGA
- Protocol: Inhibition of recombinant human GST-tagged EGFR cytoplasmic domain expressed in baculovirus expression system at 1 uM relative to control
Measured attribute: inhibition (%)

Use these answered entries as a reference point.
| Mol | inhibition (%) |
| --- | --- |
| COc1cc(C)c(C(N)=O)cc1C(=O)Nc1cccc(-c2nncn2C(C)C)n1 | -3 |
| COc1ccc(S(N)(=O)=O)cc1C(=O)Nc1cccc(-c2nncn2C(C)C)n1 | -4 |

(P) COc1cc(C)c(S(C)(=O)=O)cc1C(=O)Nc1cccc(-c2nncn2C(C)C)n1
(Q) COc1cc(C)c(S(N)(=O)=O)cc1C(=O)Nc1cccc(-c2nncn2C(C)C)n1
(R) COc1ccc(C(N)=O)cc1C(=O)Nc1cccc(-c2nncn2C(C)C)n1
(S) COc1ccc(S(C)(=O)=O)cc1C(=O)Nc1cccc(-c2nncn2C(C)C)n1
Put the entries in order of inhibition, starting with the largest number. # answer = labels listed in requested order
Q, R, P, S
(Q: 6%, R: 2%, P: 0%, S: -3%)

---

- Tgt: Serine/threonine-protein kinase Chk2 (Homo sapiens) (UniProt O96017)
- Sequence (O96017 whole entry): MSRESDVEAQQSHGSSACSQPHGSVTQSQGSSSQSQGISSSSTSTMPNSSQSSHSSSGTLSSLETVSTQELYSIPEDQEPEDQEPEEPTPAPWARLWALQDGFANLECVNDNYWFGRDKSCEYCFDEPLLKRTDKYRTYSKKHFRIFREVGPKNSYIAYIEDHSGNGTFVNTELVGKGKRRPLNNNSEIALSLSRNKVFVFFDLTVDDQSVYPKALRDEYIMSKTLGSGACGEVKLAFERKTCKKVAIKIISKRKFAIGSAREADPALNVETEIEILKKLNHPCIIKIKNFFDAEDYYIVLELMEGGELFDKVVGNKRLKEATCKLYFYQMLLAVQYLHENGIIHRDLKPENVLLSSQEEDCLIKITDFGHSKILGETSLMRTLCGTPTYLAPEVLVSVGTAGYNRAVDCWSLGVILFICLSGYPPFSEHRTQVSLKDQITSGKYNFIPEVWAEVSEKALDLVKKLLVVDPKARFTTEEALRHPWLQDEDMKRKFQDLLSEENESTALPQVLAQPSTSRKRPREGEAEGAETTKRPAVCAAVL
- Protocol: Inhibition of recombinant full length human His-tagged CHEK2 expressed in baculovirus expression system at 1 uM relative to control
Measured attribute: inhibition (%)

Use these answered entries as a reference point.
| Mol | Tgt | inhibition, % |
| --- | --- | --- |
| COc1ccc(S(C)(=O)=O)cc1C(=O)Nc1cccc(-c2nncn2C(C)C)n1 | Serine/threonine-protein kinase Chk2 (Homo sapiens) (UniProt O96017) | 48 |
| COc1cc(C)c(S(N)(=O)=O)cc1C(=O)Nc1cccc(-c2nncn2C(C)C)n1 | Serine/threonine-protein kinase Chk2 (Homo sapiens) (UniProt O96017) | 87 |
| COc1ccc(S(N)(=O)=O)cc1C(=O)Nc1cccc(-c2nncn2C(C)C)n1 | Serine/threonine-protein kinase Chk2 (Homo sapiens) (UniProt O96017) | 73 |
| COc1cc(C)c(C(N)=O)cc1C(=O)Nc1cccc(-c2nncn2C(C)C)n1 | Serine/threonine-protein kinase Chk2 (Homo sapiens) (UniProt O96017) | 76 |

(A) COc1ccc(C(N)=O)cc1C(=O)Nc1cccc(-c2nncn2C(C)C)n1
(B) COc1cc(C)c(S(C)(=O)=O)cc1C(=O)Nc1cccc(-c2nncn2C(C)C)n1
Hey, which is lower on measured inhibition, A or B ? Answer by quoting the chosen item's label.
A

---

- Tgt: Calcium/calmodulin-dependent protein kinase type II subunit alpha (Homo sapiens)
- Protocol: Inhibition of recombinant full length human His-tagged CAMK2A expressed in baculovirus expression system at 1 uM relative to control
Measured attribute: inhibition (%)

Use these answered entries as a reference point.
| Mol | Tgt | inhibition (%) |
| --- | --- | --- |
| COc1ccc(C(N)=O)cc1C(=O)Nc1cccc(-c2nncn2C(C)C)n1 | Calcium/calmodulin-dependent protein kinase type II subunit alpha (Homo sapiens) | 6 |
| COc1ccc(S(N)(=O)=O)cc1C(=O)Nc1cccc(-c2nncn2C(C)C)n1 | Calcium/calmodulin-dependent protein kinase type II subunit alpha (Homo sapiens) | 12 |

(A) COc1ccc(S(C)(=O)=O)cc1C(=O)Nc1cccc(-c2nncn2C(C)C)n1
(B) COc1cc(C)c(C(N)=O)cc1C(=O)Nc1cccc(-c2nncn2C(C)C)n1
(C) COc1cc(C)c(S(N)(=O)=O)cc1C(=O)Nc1cccc(-c2nncn2C(C)C)n1
(D) COc1cc(C)c(S(C)(=O)=O)cc1C(=O)Nc1cccc(-c2nncn2C(C)C)n1
Put the entries in order of inhibition, starting with the largest number. # answer = labels listed in requested order
C, B, D, A

---

- Tgt: Rho-associated protein kinase 1 (Homo sapiens) (UniProt Q13464)
- Sequence (Q13464 2-1354 limits assumed): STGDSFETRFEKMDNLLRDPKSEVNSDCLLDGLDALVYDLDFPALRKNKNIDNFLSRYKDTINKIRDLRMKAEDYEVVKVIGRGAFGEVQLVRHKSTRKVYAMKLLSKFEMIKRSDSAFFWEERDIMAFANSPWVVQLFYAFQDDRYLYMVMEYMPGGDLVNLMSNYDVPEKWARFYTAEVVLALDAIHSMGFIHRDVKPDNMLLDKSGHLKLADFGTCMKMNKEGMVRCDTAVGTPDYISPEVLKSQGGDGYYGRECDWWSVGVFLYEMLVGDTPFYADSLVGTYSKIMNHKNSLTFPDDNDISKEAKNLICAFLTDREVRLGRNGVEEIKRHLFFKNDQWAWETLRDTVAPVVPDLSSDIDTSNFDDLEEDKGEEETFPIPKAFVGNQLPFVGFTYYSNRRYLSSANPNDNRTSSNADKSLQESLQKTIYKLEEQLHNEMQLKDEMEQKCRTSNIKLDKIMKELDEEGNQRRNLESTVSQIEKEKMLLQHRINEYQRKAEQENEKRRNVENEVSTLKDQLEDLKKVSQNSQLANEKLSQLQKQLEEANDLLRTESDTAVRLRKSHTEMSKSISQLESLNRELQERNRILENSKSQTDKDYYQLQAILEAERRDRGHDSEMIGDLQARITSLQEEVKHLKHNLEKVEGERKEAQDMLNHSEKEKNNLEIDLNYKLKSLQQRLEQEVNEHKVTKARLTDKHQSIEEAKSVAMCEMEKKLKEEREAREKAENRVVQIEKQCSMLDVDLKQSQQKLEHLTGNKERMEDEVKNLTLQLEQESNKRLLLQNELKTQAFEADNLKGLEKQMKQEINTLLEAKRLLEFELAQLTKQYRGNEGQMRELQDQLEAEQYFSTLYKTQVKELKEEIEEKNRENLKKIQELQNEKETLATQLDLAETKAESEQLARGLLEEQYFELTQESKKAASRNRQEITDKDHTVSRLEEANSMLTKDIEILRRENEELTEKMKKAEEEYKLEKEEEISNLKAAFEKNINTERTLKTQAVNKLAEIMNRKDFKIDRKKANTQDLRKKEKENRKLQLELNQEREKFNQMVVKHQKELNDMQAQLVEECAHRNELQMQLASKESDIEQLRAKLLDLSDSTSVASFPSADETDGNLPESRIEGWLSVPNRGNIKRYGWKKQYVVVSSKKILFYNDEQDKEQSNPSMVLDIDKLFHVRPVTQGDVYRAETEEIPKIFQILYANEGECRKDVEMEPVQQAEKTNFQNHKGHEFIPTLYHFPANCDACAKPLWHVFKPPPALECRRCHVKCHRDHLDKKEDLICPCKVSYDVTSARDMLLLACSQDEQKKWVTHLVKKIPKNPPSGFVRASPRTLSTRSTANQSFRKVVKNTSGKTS
- Protocol: Inhibition of recombinant human GST-tagged ROCK1 (1 to 535 residues) expressed in baculovirus expression system at 1 uM relative to control
Measured attribute: inhibition (%)

Use these answered entries as a reference point.
| Mol | inhibition [%] |
| --- | --- |
| COc1ccc(C(N)=O)cc1C(=O)Nc1cccc(-c2nncn2C(C)C)n1 | 11 |
| COc1cc(C)c(C(N)=O)cc1C(=O)Nc1cccc(-c2nncn2C(C)C)n1 | 5 |

(I) COc1ccc(S(N)(=O)=O)cc1C(=O)Nc1cccc(-c2nncn2C(C)C)n1
(II) COc1cc(C)c(S(C)(=O)=O)cc1C(=O)Nc1cccc(-c2nncn2C(C)C)n1
(III) COc1ccc(S(C)(=O)=O)cc1C(=O)Nc1cccc(-c2nncn2C(C)C)n1
(IV) COc1cc(C)c(S(N)(=O)=O)cc1C(=O)Nc1cccc(-c2nncn2C(C)C)n1
Please put the entries in order of rising inhibition. # answer = labels listed in requested order
IV, III, I, II

---

- Tgt: Ephrin type-A receptor 2 (Homo sapiens) (UniProt P29317)
- Protocol: Inhibition of recombinant human GST-tagged EPHA2 cytoplasmic domain expressed in baculovirus expression system at 1 uM relative to control
Measured attribute: inhibition (%)

| Mol | Reading |
| --- | --- |
| COc1ccc(C(N)=O)cc1C(=O)Nc1cccc(-c2nncn2C(C)C)n1 | -1 |
| COc1cc(C)c(S(N)(=O)=O)cc1C(=O)Nc1cccc(-c2nncn2C(C)C)n1 | -1 |
| COc1ccc(S(N)(=O)=O)cc1C(=O)Nc1cccc(-c2nncn2C(C)C)n1 | 0 |
| COc1cc(C)c(S(C)(=O)=O)cc1C(=O)Nc1cccc(-c2nncn2C(C)C)n1 | 0 |

(a) COc1ccc(S(C)(=O)=O)cc1C(=O)Nc1cccc(-c2nncn2C(C)C)n1
(b) COc1cc(C)c(C(N)=O)cc1C(=O)Nc1cccc(-c2nncn2C(C)C)n1
Hey, which is lower on measured inhibition, a or b ? Answer by quoting the chosen item's label.
a
(a: 0%, b: 1%)

---

- Tgt: UniProtKB P35968
- Sequence (P35968 whole entry, the tested form may be a part): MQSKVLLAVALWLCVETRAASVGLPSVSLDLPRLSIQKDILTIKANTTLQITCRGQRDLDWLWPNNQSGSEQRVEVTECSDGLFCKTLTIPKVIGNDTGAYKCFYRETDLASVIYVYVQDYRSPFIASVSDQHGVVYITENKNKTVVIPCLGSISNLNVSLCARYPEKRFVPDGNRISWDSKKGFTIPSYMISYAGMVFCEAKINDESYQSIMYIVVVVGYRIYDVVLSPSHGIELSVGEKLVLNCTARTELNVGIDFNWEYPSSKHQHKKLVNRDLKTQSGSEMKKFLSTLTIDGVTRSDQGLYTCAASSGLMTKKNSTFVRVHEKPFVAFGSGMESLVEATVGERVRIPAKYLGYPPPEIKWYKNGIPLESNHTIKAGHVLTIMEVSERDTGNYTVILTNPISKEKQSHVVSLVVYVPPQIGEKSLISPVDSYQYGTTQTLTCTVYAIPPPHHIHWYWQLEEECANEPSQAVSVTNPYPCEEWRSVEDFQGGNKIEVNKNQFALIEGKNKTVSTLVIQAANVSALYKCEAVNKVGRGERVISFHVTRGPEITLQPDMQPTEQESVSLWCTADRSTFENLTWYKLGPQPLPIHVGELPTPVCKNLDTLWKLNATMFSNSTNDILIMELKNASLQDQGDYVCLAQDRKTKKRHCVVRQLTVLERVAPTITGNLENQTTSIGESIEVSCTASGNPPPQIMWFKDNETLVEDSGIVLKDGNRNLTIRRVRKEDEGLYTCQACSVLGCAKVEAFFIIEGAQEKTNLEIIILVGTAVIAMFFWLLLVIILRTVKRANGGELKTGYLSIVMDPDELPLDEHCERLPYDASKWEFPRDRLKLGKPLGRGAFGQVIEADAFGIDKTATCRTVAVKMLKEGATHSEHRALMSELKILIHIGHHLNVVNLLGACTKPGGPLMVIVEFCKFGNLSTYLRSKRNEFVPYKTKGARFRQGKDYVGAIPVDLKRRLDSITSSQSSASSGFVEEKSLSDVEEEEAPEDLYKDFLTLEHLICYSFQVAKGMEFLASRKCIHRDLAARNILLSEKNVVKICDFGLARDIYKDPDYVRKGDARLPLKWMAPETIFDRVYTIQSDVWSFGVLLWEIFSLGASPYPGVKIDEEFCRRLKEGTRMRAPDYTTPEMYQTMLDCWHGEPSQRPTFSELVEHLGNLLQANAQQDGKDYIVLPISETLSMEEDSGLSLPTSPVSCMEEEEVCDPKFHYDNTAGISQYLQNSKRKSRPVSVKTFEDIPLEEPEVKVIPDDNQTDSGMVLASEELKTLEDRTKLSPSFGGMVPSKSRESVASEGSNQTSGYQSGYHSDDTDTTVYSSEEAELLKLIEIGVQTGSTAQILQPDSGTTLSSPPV
- Protocol: Inhibition of recombinant human His-tagged KDR cytoplasmic domain expressed in baculovirus expression system at 1 uM relative to control
Measured attribute: inhibition (%)

| Mol | inhibition [%] |
| --- | --- |
| COc1cc(C)c(C(N)=O)cc1C(=O)Nc1cccc(-c2nncn2C(C)C)n1 | 57 |
| COc1cc(C)c(S(C)(=O)=O)cc1C(=O)Nc1cccc(-c2nncn2C(C)C)n1 | 7 |

(a) COc1cc(C)c(S(N)(=O)=O)cc1C(=O)Nc1cccc(-c2nncn2C(C)C)n1
(b) COc1ccc(C(N)=O)cc1C(=O)Nc1cccc(-c2nncn2C(C)C)n1
(c) COc1ccc(S(C)(=O)=O)cc1C(=O)Nc1cccc(-c2nncn2C(C)C)n1
(d) COc1ccc(S(N)(=O)=O)cc1C(=O)Nc1cccc(-c2nncn2C(C)C)n1
Put the entries in order of inhibition, starting with the largest number. # answer = labels listed in requested order
b, a, d, c
(b: 59%, a: 8%, d: -1%, c: -4%)

---

- Tgt: Myosin light chain kinase 2, skeletal/cardiac muscle (Homo sapiens) (UniProt Q9H1R3)
- Protocol: Inhibition of recombinant human full length GST-tagged MYLK2 expressed in baculovirus expression system at 1 uM relative to control
Measured attribute: inhibition (%)

Use these answered entries as a reference point.
| Mol | Tgt | inhibition [%] |
| --- | --- | --- |
| COc1ccc(S(C)(=O)=O)cc1C(=O)Nc1cccc(-c2nncn2C(C)C)n1 | Myosin light chain kinase 2, skeletal/cardiac muscle (Homo sapiens) (UniProt Q9H1R3) | 0 |
| COc1ccc(C(N)=O)cc1C(=O)Nc1cccc(-c2nncn2C(C)C)n1 | Myosin light chain kinase 2, skeletal/cardiac muscle (Homo sapiens) (UniProt Q9H1R3) | 7 |

(I) COc1ccc(S(N)(=O)=O)cc1C(=O)Nc1cccc(-c2nncn2C(C)C)n1
(II) COc1cc(C)c(S(N)(=O)=O)cc1C(=O)Nc1cccc(-c2nncn2C(C)C)n1
(III) COc1cc(C)c(C(N)=O)cc1C(=O)Nc1cccc(-c2nncn2C(C)C)n1
(IV) COc1cc(C)c(S(C)(=O)=O)cc1C(=O)Nc1cccc(-c2nncn2C(C)C)n1
Please put the entries in order of rising inhibition. # answer = labels listed in requested order
III, I, IV, II
